Kindly state melting point for each of the entries shown.

Consider the worked cases shown below.
{"columns": ["Compound", "Assay metric", "Test result"],
 "data": [
  ["O=C(O)c1cc2c([N+](=O)[O-])cccc2n1Cc1ccc(Cl)c(Cl)c1", "melting point", "296 to 297 °C"],
  ["CCOC(=O)c1cc2cc([N+](=O)[O-])ccc2n1Cc1ccc(Cl)c(Cl)c1", "melting point", "133 to 140 °C"]
]}

For every item below, please supply its melting point.
1. O=C(O)c1cc2ccccc2n1Cc1ccc(Cl)c(Cl)c1
2. CC(=O)c1ccc2c(c1)cc(C(=O)O)n2Cc1ccc(Cl)c(Cl)c1
3. CC(=O)c1c(C(=O)O)n(Cc2ccc(Cl)c(Cl)c2)c2ccccc12
4. CCOC(=O)c1cc2cc(Br)ccc2n1Cc1ccc(Cl)c(Cl)c1
5. O=C(O)c1cc2cc(Br)ccc2n1Cc1ccc(Cl)c(Cl)c1
6. O=C(O)c1c([C@@H]2C[C@H]2C(=O)O)c2ccccc2n1Cc1ccc(Cl)c(Cl)c1 (relative stereo)
7. COc1cccc2c1cc(C(=O)O)n2Cc1ccc(Cl)c(Cl)c1

["198 °C", "261 to 262 °C", "163 to 164 °C", "95 to 96 °C", "232 to 233 °C", "184 to 185 °C", "220 to 221 °C"]

* * *

# Tested target: MCP-1 receptor B (CCR2B) (Homo sapiens)
# Construct: expressed in transfected cells; membrane fragments
# Sequence (P41597 1-360 isoform P41597-2): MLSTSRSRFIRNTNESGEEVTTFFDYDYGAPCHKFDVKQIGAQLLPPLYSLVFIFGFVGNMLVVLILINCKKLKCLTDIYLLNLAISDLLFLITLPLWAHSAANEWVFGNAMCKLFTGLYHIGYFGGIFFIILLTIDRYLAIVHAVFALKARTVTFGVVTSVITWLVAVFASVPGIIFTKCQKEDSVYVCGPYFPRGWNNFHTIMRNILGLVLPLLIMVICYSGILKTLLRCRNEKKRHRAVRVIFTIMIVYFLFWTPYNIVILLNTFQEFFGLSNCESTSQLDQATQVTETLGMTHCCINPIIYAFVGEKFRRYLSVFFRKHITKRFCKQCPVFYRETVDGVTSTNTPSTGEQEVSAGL
# Assay comment: hMCP-1 receptor-binding assay (125I-MCP-1 competition on CHO-CCR2B cell membranes)
# Condition info: competition with 100 pM labelled MCP-1; CHO-CCR2B cell membranes; read-out: IC50 in the hMCP-1 receptor binding assay
Assay metric: IC50 (µM)
One number for each entry, in µM.

Tell me its IC50 given `COc1ccc(Cn2c(C(=O)O)cc3cc(F)ccc32)cc1` as the entry.
7.38

Sourced from patent US6953809B2
